Please provide measured Antifol + FU for the entries that follow.
system: P388 murine leukemia cells; assay: Combination of antifolates with FU and LV on P388 proliferation; type: cell-based; conditions: antifolate 1.0 nM 24 hours, 5 μM FU final 4 hours
Counter-ions that a name gives are not always drawn.

Q) Can you look up the measured Antifol + FU of Cc1nc(N)nc(N)c1N1CCN(c2ccc(/C=N/OCCN)cc2)CC1 [Example 12, dihydrochloride] for me?
A) 20% of control

Q) Can you look up the measured Antifol + FU of COc1cc(NCc2ccc3nc(N)nc(N)c3c2C)cc(OC)c1OC [Trimetrexate, reference compound] for me?
A) 12% of control

Q) Can you look up the measured Antifol + FU of CC(=O)c1ccc(N2CCN(c3c(C)nc(N)nc3N)CC2)cc1 for me?
A) 10% of control

Q) Can you look up the measured Antifol + FU of CC(=O)c1ccc(N2CCN(c3c(C)nc(N)nc3N)CC2)cc1F for me?
A) 20% of control

Q) Can you look up the measured Antifol + FU of Cc1nc(N)nc(N)c1N1CCN(c2ccc(C(=O)N(C)N)cc2)CC1 for me?
A) 10% of control
